Reference source for all entries: patent US20060110401A1

# assayed_system: HLA-DR4 (DRB1*0401) (human)
# assay_explanation: competition binding
# conditions_used: chains peptide; modification not given
I'd appreciate it if you could supply IC50 values for the items below.
Provide only the numeric value, understood in µM.

Which IC50 value is on record for KPGIYRFVAPGERPSGMFD [27N 1495-1513] ?
1.25

Which IC50 value is on record for PQDVKFPGGGQIVGGVYLLPRRGPRLGVR [1C 19-47] ?
70

Which IC50 value is on record for SSDLYLVTRHADVIPVRRRGDSRGSLL [13N 1127-1153] ?
3.5
